- assay_remarks: mtPTP inhibition via calcium retention, dose response, biochemical, dry powder samples, uHTS hits, Calcium Green-5N (AID 743360)
- assay_conditions: isolated mitochondria, Ca retention capacity
Activity calls are given as the source filed them.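 The calls were made as follows: active = calcium retention capacity relative to untreated control above about 1.1 ratio (limit read from the data); inactive = the rest.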
Parameter call: string, one of yes (1) (active), no (0) (inactive)

Q: What did this assay record as the result for CC1CCN(CCCC(=O)c2ccc(Br)cc2)CC1 ?
A: no (0)

Q: What did this assay record as the result for COc1ccc(Cl)cc1C(=O)Nc1ccc(CN2CCNCC2)cc1 ?
A: yes (1)

Q: What did this assay record as the result for COc1ccc(Cl)cc1C(=O)Nc1ccc(N2CCCCC2)cc1 ?
A: no (0)

Q: What did this assay record as the result for COc1ccccc1C(=O)Nc1ccc(C(=O)N2CCCCC2)cc1 ?
A: no (0)

Next:
Q: What did this assay record as the result for COc1ccc(Cl)cc1S(=O)(=O)Nc1ccc(CN2CCCCC2)cc1 ?
A: no (0)

Q: What did this assay record as the result for CC(C)C1CCN(CCCC(=O)c2ccc(Br)cc2)CC1 ?
A: yes (1)

Q: What did this assay record as the result for Cc1ccc(NC(=O)c2cc(-c3cccc(O)c3)on2)cc1Cl ?
A: yes (1)

Q: What did this assay record as the result for COc1ccc(Cl)c(C(=O)Nc2ccc(CN3CCN(C(=O)OC(C)(C)C)CC3)cc2)c1 ?
A: yes (1)

Every entry's value here was drawn from PubChem BioAssay AID743360.
